assay name: Components of the Cytosolic LPS Sensing Pathway: Gene Identification via Genome-wide siRNA Screen;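 also: robust z of the log signal after scaling to non-targeting control siRNA wells of the plate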
recorded conditions: RAW264.7 macrophages, IL-1a HTRF, actives lie on both sides, screened at 100 nM (by protocol), cells primed 5 h with Pam3CSK4 first
About 3,700 (7%) of roughly 53,000 sequences were called active. This is one part of a sample in which actives are shown more often than they occur.
Label False if z-score falls below 0.1; label True in every other case.

> print(dat)
                         sequence.record  class
1  GGUUUUGUAGGAGUCUCUCTT against Vmn1r54   True
2  GGUAAAUGAUCUGAAAAUGTT against Rps6ka6  False
3    GCUGCAAUAGUCACUGGAGTT against H2-K1   True
4  GGAUUCAGAAGGCCUCAGUTT against Olfr399   True
5  GGCAGAGCUAGAUCAAAUUTT against Retreg1   True
6  CCUGUGUUUCAGUUUGGUATT against Clptm1l   True

---

Reported z-score values for the following sequences.
assay name: Components of the Cytosolic LPS Sensing Pathway: Gene Identification via Genome-wide siRNA Screen;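 also: robust z of the log signal after scaling to non-targeting control siRNA wells of the plate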
recorded conditions: RAW264.7 macrophages, IL-1a HTRF, actives lie on both sides, screened at 100 nM (by protocol), cells primed 5 h with Pam3CSK4 first
In all, about 53,000 sequences went through this assay and about 3,700 (7%) were called active. Only a selection was taken, and actives are over-represented in it overall.
metric: z-score

> print(dat)
                         sequence.record  experimental.value
1  GCCUAUUGUAGUGUUACAUTT against Cyp2c67              -0.887
2      GGACUUCACAAUCUCUUUCTT against Hck               -0.11
3    GCCAACCUGAAACCAUCUATT against Ptprg              0.0567
4  CCAGAUGCUAUGCUAGGGATT against Clec4a1             -0.0541
5  GGCGGAAGCCAUCUAACUUTT against Arhgef4              -0.519
6    CCUGUCAUCACACUCGAGGTT against Coro6            -0.00248

---

Reported z-score values for the following sequences.
assay name: Components of the Cytosolic LPS Sensing Pathway: Gene Identification via Genome-wide siRNA Screen;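 also: robust z of the log signal after scaling to non-targeting control siRNA wells of the plate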
recorded conditions: RAW264.7 macrophages, IL-1a HTRF, actives lie on both sides, screened at 100 nM (by protocol), cells primed 5 h with Pam3CSK4 first
Out of some 53,000 sequences screened, about 3,700 (7%) were called active. Shown is part of a subset that was picked to be rich in actives.
metric: z-score

> print(dat)
                            sequence.record  experimental.value
 1      CCCUAACAUUGAGAUGAUUTT against Peg10              -0.369
 2    GGUCCCAGCAUGUUUACGUTT against Slc2a12                3.04
 3    CCAUUCUACGAGAAUUGUATT against Dync1i2              -0.326
 4       GGUGGCGGGAGAUGUUUUUTT against Pex6                0.85
 5      GGACUUAUUUCUUUAAGGATT against Mmp17              -0.567
 6      GGGUCCUUUUUAGCUGUAGTT against Vdac1                3.83
 7       CCUCGUUCCUUUGAAAUCATT against Gfi1               0.255
 8      GCUGAACAAUUUUCAACAATT against Sclt1              -0.958
 9       GCCAGAUCCCUGGAAUGUATT against Ece2              -0.632
10     GGAGGUAUUAUCUGAAUUGTT against Utp14a                1.17
11      GGCUGGUGCUGAAUAUCUUTT against Bnip5               0.507
12      GGCAAAGAUCUUAUGGAGATT against Csf3r              0.0079
13       GGUGAUACGUAUUUUUUAGTT against Pan3               -1.09
14     GGUAGACGGAAUCUAUUUATT against Kcnj15               -1.31
15      GGUUUGUUUUUGUUCGUUUTT against Cytip              -0.067
16  GGAUCUUUACAUCUCUAACTT against Krtap31-1                1.58
17   GGAAAGUUGUGAACUCUAATT against Olfr1157               0.583
18     GCCACGUGAUAGUAAUAAATT against Psmd12              0.0999
19        GGCAAGUUUGCUAUAACCUTT against Jmy               -2.57
20    GGUAGCUCUGAGACAAUUCTT against Pkhd1l1               0.857
21      GGCAUGAUGAUAUUUGAAATT against Glrp1              -0.142
22        GGAUGAGGUGAUUAAAGAATT against Cd9                2.38
23       GGAGAAAGUCAAGACCCUCTT against Jund               0.473
24  GGCUACCAUGGACACAUCATT against Magea7-ps               -2.31
25        GGGCUUCUUUGCCACACUUTT against Rho               0.761

---

Reported z-score values for the following sequences.
assay name: Components of the Cytosolic LPS Sensing Pathway: Gene Identification via Genome-wide siRNA Screen;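 also: robust z of the log signal after scaling to non-targeting control siRNA wells of the plate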
recorded conditions: RAW264.7 macrophages, IL-1a HTRF, actives lie on both sides, screened at 100 nM (by protocol), cells primed 5 h with Pam3CSK4 first
In all, about 53,000 sequences went through this assay and about 3,700 (7%) were called active. The entries come from a sample that favours actives as a whole.
metric: z-score

> print(dat)
                             sequence.record  experimental.value
 1  GGAAAGUACCCUAGGAGUUTT against 4921509C19Rik                -1.6
 2      GGUAGUAGGAGGAAUGACGTT against Ccdc93              -0.353
 3    GGCCAACCUGGAGAACUUGTT against Atp6v1c2               0.441
 4       CGACUGGAUACCAAAUUACTT against Mtrex               -1.21
 5      GGCAGAGAUGGUGUUGAUGTT against Col1a2              -0.342
 6      GGAAAAUUCAGUUUAAUCCTT against Glt8d1               0.438
 7      GCUAAACAUAAAAAUCGACTT against Garre1               -1.27
 8   GGGUACAUCUAACUUGAAUTT against Tnfrsf10b              -0.411
 9       GGACUAAGCAAUCUCUUUUTT against Gspt2                0.81
10        GGCAAAAGAAUCGUUCUCATT against Ppat              -0.848
11        GCGACAAUAUGAGUCACCUTT against Fsd1               -2.07
12      GGAGAGAACUGAUGAAUCCTT against Sdhaf2               -0.26
13       GCCUCACUCAGCAAAAGGATT against Ttc9c               -2.09
14        GGGAGUUGGUGGAAUGCUUTT against Ech1              -0.221
15       GCCAAACGAACAACAAAACTT against Chrm3              -0.166
16     GCAUUCGUUCGGCACGUGUTT against Bcl2l14             -0.0672
17     GGACUAAUUGGCCUCUGCUTT against Rpl22l1               0.638
18       GCGAGUGCUAACAUGAAAGTT against Sar1a             -0.0783
19      CGGCGACAUUGUUUUGCUATT against Acvr2a                1.19
20     CCGCCCGCUCAACACUAAUTT against Zfp36l3               -2.39
21     CCUACAAACCAGAAGAGGUTT against Akr1c19               0.285
22      CGGAGUGUACCAUCUACACTT against Agpat4               0.193
23      CCUUUGUGUCCUAACGGUGTT against Tubb2b              -0.158
24        GGAGCUUGACAUUAAGGACTT against Erc2               0.809
25      GGAGGAGUUUGACUUCGACTT against Alox12              -0.109

Data credit: PubChem BioAssay AID1508600
